What IC50 was measured for each of the following?
- System: PC3
- protocol-summary: in vitro antiproliferation assay, PC3 (prostate)
- Type: cell-based

// known answers, use as guide
smiles: CNC(=O)COc1cccc(Nc2nc(Nc3cccc(C(C)(C)C)c3)ncc2F)c1
IC50: > 20 µM

smiles: CNC(=O)COc1cccc(Nc2ncc(F)c(Nc3ccc4c(n3)NC(=O)CO4)n2)c1
IC50: ≤ 20 µM

smiles: CNC(=O)c1cc2cc(Nc3ncc(F)c(Nc4ccc(C(C)(C)C)cc4)n3)ccc2o1
IC50: ≤ 20 µM

IC50 reported for this compound `Cc1cc(Nc2nc(Nc3cccc(OCC(=O)N4CCNCC4)c3)ncc2F)cc(C)c1O` : > 20 µM

---

- Test system: HELA
- protocol-summary: in vitro antiproliferation assay, HELA (cervix/p53 wt)
- Assay type: cell-based
- condition-info: Homo sapiens
assay-readout: IC50

IC50 reported for this molecule `Fc1cnc(Nc2cccc(-c3ncco3)c2)nc1Nc1cc(C2CC2)[nH]n1` : ≤ 20 µM

---

- System: H1299 cells
- protocol-summary: in vitro antiproliferation assay, H1299 (lung)
- Assay type: cell-based
- condition-info: H1299 (lung) cells, in vitro antiproliferation
pIC50: −log10 of the molar value.
What pIC50 was measured for each of the following?

smiles: COc1ccc(Nc2ncc(F)c(Nc3ccc(OC)c(Cl)c3)n2)cc1Cl
pIC50: < 4.70

smiles: CNC(=O)COc1cc(O)cc(Nc2ncc(F)c(Nc3cccc(O)c3)n2)c1
pIC50: < 4.70

smiles: Cc1cc(C)cc(Nc2nc(Nc3cc(C)cc(C(F)(F)F)c3)ncc2F)c1
pIC50: < 4.70

smiles: COc1cc(Nc2ncc(F)c(Nc3cc(C)cc(C)c3)n2)cc(OC)c1
pIC50: ≥ 4.70

smiles: COc1cc(Nc2ncc(F)c(Nc3cc(OC)cc(C(F)(F)F)c3)n2)cc(OC)c1
pIC50: ≥ 4.70

smiles: Cc1cc(C)cc(Nc2ncc(F)c(Nc3cccc(OC(F)(F)F)c3)n2)c1
pIC50: < 4.70

smiles: C=CCNC(=O)COc1cccc(Nc2nc(Nc3cccc(OCC(=O)NC)c3)ncc2F)c1
pIC50: ≥ 4.70

smiles: Cc1ccc(Nc2ncc(F)c(Nc3ccc(C)cc3)n2)cc1
pIC50: < 4.70

smiles: COc1ccc(N(C)c2nc(Nc3cc(C)cc(C)c3)ncc2F)cc1OC
pIC50: ≥ 4.70

smiles: CCOC(=O)COc1cccc(Nc2nc(Nc3cc(OC)cc(OC)c3)ncc2F)c1
pIC50: < 4.70

Each compound below has a recorded value; state its pIC50.
1. CNC(=O)COc1cccc(Nc2nc(Nc3ccc(OCCN(C)C)cc3)ncc2F)c1
2. COc1cc(Nc2ncc(F)c(Nc3cc(OC)cc(C(F)(F)F)c3)n2)cc(C(F)(F)F)c1
3. Oc1c(Cl)cc(Nc2ncc(F)c(Nc3ccc(OC(F)(F)F)c(Cl)c3)n2)cc1Cl
4. OCc1cc(CO)cc(Nc2ncc(F)c(Nc3ccc(Cl)c(Cl)c3)n2)c1
5. CCOc1ccc(Nc2ncc(F)c(Nc3ccc(OC)c(OC)c3)n2)cc1

Response given:
1. ≥ 4.70
2. ≥ 4.70
3. ≥ 4.70
4. ≥ 4.70
5. ≥ 4.70

---

- Tested on: H1299 cells
- protocol-summary: in vitro antiproliferation assay, H1299 (lung)
- Type: cell-based
- condition-info: H1299 (lung) cells
pIC50: −log10 of the molar value.
assay-readout: pIC50

smiles: CC(C)(CC1CC1)n1ncc2cc(Nc3ncc(F)c(Nc4ccc(Cl)c(Cl)c4)n3)ccc21
assay-readout: pIC50
observed-result: < 4.70
--
smiles: COc1ccc(Nc2nc(Nc3ccc4cnn(C(C)(C)CC5CC5)c4c3)ncc2F)cc1Cl
assay-readout: pIC50
observed-result: ≥ 4.70
--
smiles: CCCn1ncc2ccc(Nc3ncc(F)c(Nc4ccc5c(c4)NC(=O)C(C)(C)O5)n3)cc21
assay-readout: pIC50
observed-result: ≥ 4.70
--
smiles: CCCn1ncc2ccc(Nc3ncc(F)c(Nc4ccc(F)c(OC)c4)n3)cc21
assay-readout: pIC50
observed-result: ≥ 4.70
--
smiles: COc1cc(Nc2nc(Nc3ccc4cnn(C(C)(C)CC5CCC5)c4c3)ncc2F)ccc1F
assay-readout: pIC50
observed-result: ≥ 4.70

Each compound below has a recorded value; state its pIC50.
1. CCCCn1ncc2cc(Nc3ncc(F)c(Nc4ccc(F)c(OC)c4)n3)ccc21
2. Fc1cnc(Nc2ccc3c(cnn3CC3CCCCC3)c2)nc1Nc1ccc(Cl)c(Cl)c1
3. CC1(C)Oc2ccc(Nc3nc(Nc4ccc5c(cnn5C(C)(C)CC5CCC5)c4)ncc3F)cc2NC1=O

Response given:
1. ≥ 4.70
2. < 4.70
3. ≥ 4.70

---

- Tested on: A549 cells
- protocol-summary: in vitro antiproliferation assay, A549 (lung)
- Type: cell-based
- condition-info: A549 (lung) cells, antiproliferation
What IC50 was measured for each of the following?

// known answers, use as guide
smiles: COC(=O)COc1cccc(Nc2ncc(F)c(Nc3cc(C)c(O)c(C)c3)n2)c1
observed-result: > 20 µM
--
smiles: Cc1cc(Nc2nc(Nc3cccc(OCCN4CCNCC4)c3)ncc2F)cc(Cl)c1O
observed-result: ≤ 20 µM
--
smiles: NCc1ccc(Nc2ncc(F)c(Nc3ccc(CN)cc3)n2)cc1
observed-result: ≤ 20 µM
--
smiles: CNC(=O)c1ccc(Nc2ncc(F)c(N(C)c3ccc(OC)c(OC)c3)n2)cc1Cl
observed-result: ≤ 20 µM
--
smiles: Cc1cc(C)cc(Nc2ncc(F)c(N(C)c3cc(C)c(Cl)c(C)c3)n2)c1
observed-result: > 20 µM

Each molecule below has a recorded value; state its IC50.
1. CC(C)c1cccc(Nc2nc(Nc3cccc(OCCO)c3)ncc2F)c1
2. Cc1cc(Nc2nc(Nc3cccc(OCC(=O)N4CCOCC4)c3)ncc2F)cc(Cl)c1O
3. Cc1cc(Nc2nc(Nc3cccc(OCCN4CCOCC4)c3)ncc2F)cc(C)c1O
4. Cc1cc(C)cc(Nc2ncc(F)c(N(C)c3ccc(Cl)c(Cl)c3)n2)c1
5. Cc1cc(C)cc(Nc2nc(Nc3cc(C)c(Cl)c(C)c3)ncc2F)c1
6. Cc1cc(Nc2ncc(F)c(Nc3cc(C)c(O)c(Cl)c3)n2)cc(Cl)c1O
7. CCOC(=O)COc1cccc(Nc2ncc(F)c(Nc3cc(C)c(O)c(C)c3)n2)c1
8. COc1cc(Nc2ncc(F)c(Nc3cc(C)cc(C)c3)n2)cc(OC)c1OC

Response given:
["≤ 20 µM", "> 20 µM", "≤ 20 µM", "> 20 µM", "> 20 µM", "≤ 20 µM", "> 20 µM", "≤ 20 µM"]

Each molecule below has a recorded value; state its IC50.
1. CNC(=O)COc1cccc(Nc2ncc(F)c(Nc3cc(C)c(O)c(Cl)c3)n2)c1
2. COc1cc(N(C)c2nc(Nc3cc(C)cc(C)c3)ncc2F)ccc1Cl
3. CNC(=O)COc1c(C)cc(Nc2ncc(F)c(Nc3cc(OC)cc(OC)c3)n2)cc1C
4. CC(C)(C)c1cccc(Nc2nc(Nc3cccc(OCC(=O)O)c3)ncc2F)c1

Response given:
1: ≤ 20 µM; 2: ≤ 20 µM; 3: ≤ 20 µM; 4: > 20 µM

---

- System: H1299 cells
- protocol-summary: in vitro antiproliferation assay, H1299 (lung)
- Format: cell-based
- condition-info: Homo sapiens, NCI-H1299; H1299 (lung) cells
assay-readout: IC50

// known answers, use as guide
compound: COc1cc(C(N)=O)c(Nc2ncc(F)c(NC3CCCCC3)n2)cc1OC(=O)c1ccccc1
target-or-system: H1299 cells
IC50: ≤ 20 µM

compound: COc1cc(C(N)=O)c(Nc2ncc(F)c(NC3CCCC3)n2)cc1OC(=O)c1ccccc1
target-or-system: H1299 cells
IC50: ≤ 20 µM

compound: COc1cc(C)c(Nc2ncc(F)c(Nc3ccc4c(c3)NC(=O)[C@@H](C)O4)n2)cc1Cl
target-or-system: H1299 cells
IC50: > 20 µM

Each compound below has a recorded value; state its IC50.
1. O=C1Nc2ccc(Nc3nc(Nc4cccc(-c5ncco5)c4)ncc3F)cc2OC1CCO (centres unmarked)
2. COc1cc(C)c(Nc2ncc(F)c(Nc3ccc4c(c3)NC(=O)[C@H](C)O4)n2)cc1Cl

Response given:
["≤ 20 µM", "> 20 µM"]

---

- Test system: A549 cells
- protocol-summary: in vitro antiproliferation assay, A549 (lung)
- Assay type: cell-based
- condition-info: Table 7; in vitro antiproliferation, A549 (lung) cells
assay-readout: IC50

// known answers, use as guide
compound: O=C(c1cc2cc(Nc3ncc(F)c(Nc4cccc(O)c4)n3)ccc2o1)N1CCNCC1 [compound 633]
assay-readout: IC50
observed-result: ≤ 20 µM
//
compound: CCOC(=O)c1cc2cccc(Nc3ncc(F)c(NC4CCC4)n3)c2[nH]1 [compound 678]
assay-readout: IC50
observed-result: > 20 µM
//
compound: COc1cc(Nc2nc(Nc3ccc4[nH]c(C(C)=O)cc4c3)ncc2F)cc(OC)c1 [compound 658]
assay-readout: IC50
observed-result: > 20 µM
//
compound: COc1cc(Nc2nc(Nc3cccc4cc(C(=O)NC(C)(C)CO)[nH]c34)ncc2F)cc(OC)c1 [compound 660]
assay-readout: IC50
observed-result: ≤ 20 µM
//
compound: COC(=O)c1cc2cc(Nc3ncc(F)c(Nc4ccc5c(c4)OCCO5)n3)ccc2o1 [compound 638]
assay-readout: IC50
observed-result: > 20 µM

Each compound below has a recorded value; state its IC50.
1. O=C(c1cc2cc(Nc3ncc(F)c(Nc4ccc5c(c4)OCCO5)n3)ccc2o1)N1CCOCC1 [compound 626]
2. COC(=O)c1cc2cc(Nc3ncc(F)c(N(C)c4cc(C)c(Cl)c(C)c4)n3)ccc2o1 [compound 672]
3. O=C(O)c1cc2cc(Nc3ncc(F)c(Nc4ccc5c(c4)OCCO5)n3)ccc2o1 [compound 639]

Response given:
["< 20 µM", "> 20 µM", "> 20 µM"]
